For each entry below, report its normalised inhibition (eCFP-eYFP dual reporter) value.
# target.desc: UBE2I; also: test concentration or dose not given here
# assay.details: reporter assay of Huesken 2005
# cond: siRNA
Oligonucleotides are written 5' to 3', each unit as a sugar letter and its base; * is a phosphorothioate linkage, no mark a phosphodiester; rarer units and linkages stand in square brackets, end groups in braces. Plain capitals give the bases only. d = 2'-deoxy (DNA); r = 2'-OH (RNA)
Numbers only, in %.

Solved cases (3 shown):
# substance, unit.symbol, test.result
rows = [
    ("sense rArArUrGrUrGrUrArCrCrCrUrUrCrGrGrGrGrAdTdT / antisense rUrCrCrCrCrGrArArGrGrGrUrArCrArCrArUrUdCdG", "%", 59.6),
    ("sense rGrUrArArArUrUrCrGrArArCrCrArCrCrArUrUdTdT / antisense rArArUrGrGrUrGrGrUrUrCrGrArArUrUrUrArCdAdT", "%", 89.2),
    ("sense rCrGrGrArUrGrCrUrUrUrUrCrArArArGrArUrGdTdT / antisense rCrArUrCrUrUrUrGrArArArArGrCrArUrCrCrGdTdA", "%", 87.3),
]

As a next step, examine the substance that follows.
Query: Fill in: normalised inhibition (eCFP-eYFP dual reporter) of sense rArGrCrCrArUrCrArCrArArUrCrArArArCrArGdTdT / antisense rCrUrGrUrUrUrGrArUrUrGrUrGrArUrGrGrCrUdGdG is ___
Result: 60.1
